Catalogue of Ki values
# Tgt: human motilin receptor (Homo sapiens, UniProt O43193)
# Construct: purchased PerkinElmer 6110544; host or cells: CHO cells, stably transfected
# Sequence (O43193 whole entry): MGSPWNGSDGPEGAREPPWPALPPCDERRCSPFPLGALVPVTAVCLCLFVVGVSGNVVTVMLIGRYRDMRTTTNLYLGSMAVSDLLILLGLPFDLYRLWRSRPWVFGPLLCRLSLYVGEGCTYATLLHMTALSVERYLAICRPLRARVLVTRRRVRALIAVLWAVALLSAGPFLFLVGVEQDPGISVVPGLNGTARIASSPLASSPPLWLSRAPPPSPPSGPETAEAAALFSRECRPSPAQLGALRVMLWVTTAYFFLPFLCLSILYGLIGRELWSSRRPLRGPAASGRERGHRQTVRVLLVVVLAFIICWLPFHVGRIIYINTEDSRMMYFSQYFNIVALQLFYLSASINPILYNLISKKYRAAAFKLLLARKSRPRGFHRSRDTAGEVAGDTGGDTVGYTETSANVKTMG
# Assay procedure: Competitive radioligand binding assay (motilin receptor), Method B1
# Setup conditions: read-out: Binding Affinity [Ki (μM)]
Recorded metric: Ki

>>> print(df.to_string())
                            compound_string   measured_value
0  CC(C)[C@H]1NC(=O)[C@@H](Cc2cccc(F)c2)NCCOc2ccccc2C[C@@H](C)CNC(=O)[C@H](CN(C)C)NC1=O      0.1 to 1 µM
1  CC(C)[C@H]1NC(=O)[C@@H](Cc2cccc(F)c2)NCCOc2ccccc2C[C@H](O)CNC(=O)[C@H](CC2CC2)NC1=O      0.1 to 1 µM
2  CC(C)[C@H]1NC(=O)[C@@H](Cc2cccc(C(F)(F)F)c2)NCCOc2ccccc2C[C@@H](C)CNC(=O)[C@H](CNC(=N)N)NC1=O  0.001 to 0.1 µM

Values from patent US7452862B2
